Biological target: T1, Evasin-1 WT (Rhipicephalus sanguineus, UniProt P0C8E7 21-114)
T1 chain: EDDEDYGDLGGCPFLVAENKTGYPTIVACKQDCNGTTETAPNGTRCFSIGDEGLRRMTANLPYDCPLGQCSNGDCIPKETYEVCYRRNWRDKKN
Assay: SPR
measured parameter: Kd (nM)
Respond with the bare value in nM.

* CCL3 (ligand) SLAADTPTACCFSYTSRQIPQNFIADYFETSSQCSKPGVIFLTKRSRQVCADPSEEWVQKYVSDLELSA | 0.12
* CCL4 (protein, disulfide (positions not given here)) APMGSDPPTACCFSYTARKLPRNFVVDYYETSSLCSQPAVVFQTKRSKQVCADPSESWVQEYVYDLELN | 0.51
* CCL18 (protein, disulfide (positions not given here)) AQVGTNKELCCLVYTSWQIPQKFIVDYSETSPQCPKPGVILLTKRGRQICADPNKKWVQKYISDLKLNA | 3.21
* CCL3/CCL5 chimera (ligand) ASLAADTPTACCFAYIARPLPRAHIKEYFYTSGKCSNPAVVFVTRKNRQVCANPEKKWVREYINSLEMS | 1.02

Summary for this binder, Δ4CCL3 (ligand) ADTPTACCFSYTSRQIPQNFIADYFETSSQCSKPGVIFLTKRSRQVCADPSEEWVQKYVSDLELSA : Kd is 0.17

Where these numbers come from: paper PMC2796168
